// data source = PubChem BioAssay (Tox21)

# target-desc: Beta-2 adrenergic receptor (Homo sapiens) (UniProt P07550)
# Sequence (P07550 whole entry, looked up): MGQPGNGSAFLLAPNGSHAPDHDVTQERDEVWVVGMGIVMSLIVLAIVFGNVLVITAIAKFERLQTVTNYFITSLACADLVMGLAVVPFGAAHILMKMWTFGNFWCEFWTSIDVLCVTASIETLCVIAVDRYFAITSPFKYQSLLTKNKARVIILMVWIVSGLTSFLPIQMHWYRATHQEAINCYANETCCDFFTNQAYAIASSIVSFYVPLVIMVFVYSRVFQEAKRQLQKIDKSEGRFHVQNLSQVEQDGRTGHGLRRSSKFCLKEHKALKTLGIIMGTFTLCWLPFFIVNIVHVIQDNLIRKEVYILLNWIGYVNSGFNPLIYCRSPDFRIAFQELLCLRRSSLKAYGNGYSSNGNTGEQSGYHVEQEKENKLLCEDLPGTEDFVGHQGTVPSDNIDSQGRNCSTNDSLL
# protocol: Adrenergic beta2 receptor (ADRB2) small molecule antagonists, cell-based qHTS assay (AID 1963592); also: nearly all actives have a fitted effect of over 50% in size
# run-parameters: CHO-ADRB2 cells, isoproterenol-stimulated cAMP HTRF ratio, 0.5 h; series mostly up to 92.4 µM
Results filed as inconclusive are left out. The source made the active and inactive calls. Calls follow the shape of the full dose curve.
measured-property: outcome

Exercise: Reported outcome for `CCCOC(=O)c1cc(O)c(O)c(O)c1` : what is it?
Key: inactive

Exercise: Reported outcome for `CN1C(C(=O)Nc2ccccn2)=C(O)c2ccccc2S1(=O)=O` : what is it?
Key: inactive

Exercise: Reported outcome for CCC(Cc1c(I)cc(I)c(N)c1I)C(=O)O (stereo unspecified) : what is it?
Key: inactive

Exercise: Reported outcome for O=C(c1ccccc1)C(O)c1ccccc1 (stereo unspecified) : what is it?
Key: inactive

Exercise: Reported outcome for `C[C@]12CCC(=O)C=C1CC[C@@H]1[C@@H]2C(=O)C[C@@]2(C)[C@H]1CC[C@]2(O)C(=O)CO` : what is it?
Key: inactive

New cases:
Exercise: Reported outcome for `CCCCNC(=O)NS(=O)(=O)c1ccc(N)cc1` : what is it?
Key: inactive
